- Assay System: T1, human GIP receptor (human, UniProt P48546 22-466)
- T1 sequence (looked up): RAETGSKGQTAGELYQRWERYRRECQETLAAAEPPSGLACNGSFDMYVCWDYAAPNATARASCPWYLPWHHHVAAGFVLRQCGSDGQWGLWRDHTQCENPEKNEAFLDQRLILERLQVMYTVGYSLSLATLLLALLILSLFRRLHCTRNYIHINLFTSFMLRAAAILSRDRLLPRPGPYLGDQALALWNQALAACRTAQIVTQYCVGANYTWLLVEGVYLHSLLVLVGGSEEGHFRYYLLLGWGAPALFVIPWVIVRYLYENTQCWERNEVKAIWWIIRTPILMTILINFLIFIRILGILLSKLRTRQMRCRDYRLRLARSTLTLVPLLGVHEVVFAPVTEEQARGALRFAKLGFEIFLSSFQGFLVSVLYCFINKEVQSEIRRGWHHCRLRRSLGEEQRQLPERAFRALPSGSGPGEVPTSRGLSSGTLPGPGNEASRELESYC
- Test Details: cell-based or functional assay
Parameter class (string): assigned from measured cAMP EC50. Ranges: label 0: < 0.009 nM; label 1: ≥ 0.009 nM and < 0.06 nM; label 2: ≥ 0.06 nM

> print(dat)
                                     binder  class.label
1  IP357 (Fc fusion) YSEGTFTSDFSKLLEEEAVRLFIEFLLAGGGGGGSGGGGSGGGGSGGGGSATHTCPPC      label 1
2  IP273 (Fc fusion) YSEGTFTSDYSKLLEEEAVRLFIEWLVKGPAAAGGSGSTASSGSGSATGGGGAATHTCPPC      label 0
3  IP297 (Fc fusion) YSEGTFTSDYSKLLEEEAVRLFIEWLLAGGGGGGGGGGGGGGGGGGGGGGGGGACPPC      label 1
4  IP382 (Fc fusion) YSEGTFTSLYSKLLEEEAVRLFIEYLLAGGGGGGSGGGGSGGGGSGGGGSATHTCPPC      label 2
5  IP286 (Fc fusion) YSEGTFTSDYSKLLEEEAVRLFIEWLVKGPGGGGGGGGGGGGGGGGGGGGGGGGGGGATHTCPPC      label 0
6  IP228 (Fc fusion) YSEGTFTSDYSKLLEEEAVRLFIEWLKNGGAAAGGSGSTASSGSGSATGGGGAATHTCPPCPAPEF      label 1
7  IP024 (Fc fusion) YSEGTFTSDYSKLLEEEAVRLFIEWLLAGAAAGGSGSTASSGSGSATGGGGAATHTCPPCPAPEF      label 0
8  IP291 (Fc fusion) YSEGTFTSDYSKLLEEECVRLFIEWLVKGGPGGGAPPPGCGGGGGGGGGGGGGGGGGACPPC      label 2
9  IP317 (Fc fusion) YSEGTFTSDVSSYLEKQAIDEFIAWLLKGGAAAGGSGSTASSGSGSATGGGGAATHTCPPC      label 2
